Biological target: human RXFP1 (Homo sapiens)
Sequence (Q9HBX9 whole entry): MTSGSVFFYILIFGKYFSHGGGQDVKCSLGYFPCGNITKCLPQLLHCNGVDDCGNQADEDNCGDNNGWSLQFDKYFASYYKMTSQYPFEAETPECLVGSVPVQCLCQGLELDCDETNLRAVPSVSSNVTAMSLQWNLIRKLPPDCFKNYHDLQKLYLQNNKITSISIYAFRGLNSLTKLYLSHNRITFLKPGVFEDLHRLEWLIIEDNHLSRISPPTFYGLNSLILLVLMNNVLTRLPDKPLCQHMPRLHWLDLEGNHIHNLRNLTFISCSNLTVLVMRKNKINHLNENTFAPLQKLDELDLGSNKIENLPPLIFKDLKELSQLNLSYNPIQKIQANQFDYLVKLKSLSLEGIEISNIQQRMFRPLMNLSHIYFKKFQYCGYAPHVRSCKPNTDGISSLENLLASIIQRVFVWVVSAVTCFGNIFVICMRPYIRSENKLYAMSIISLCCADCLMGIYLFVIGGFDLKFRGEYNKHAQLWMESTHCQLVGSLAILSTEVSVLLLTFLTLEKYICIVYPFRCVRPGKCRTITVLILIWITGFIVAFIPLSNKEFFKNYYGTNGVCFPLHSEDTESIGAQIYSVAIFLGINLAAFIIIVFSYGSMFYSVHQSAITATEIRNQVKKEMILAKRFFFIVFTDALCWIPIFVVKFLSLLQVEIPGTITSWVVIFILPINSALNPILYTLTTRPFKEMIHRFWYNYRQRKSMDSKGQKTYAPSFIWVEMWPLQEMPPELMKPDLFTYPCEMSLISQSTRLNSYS
Test: RXFP1 Hu cAMP (Test A)
Assay type: cell-based
Set-up: expressed in transfected cells; host or cells: Jump-In T-REx CHO-K1 cells (ThermoFisher), induced with 10 ng/ml doxycycline for 24 h
Conditions: RXFP1 Hu cAMP
# Test A Sinf per entry
measurement.name: Test A Sinf (%)

{"columns": ["mol.smiles", "quantitative.result"],
 "data": [
  ["COc1cc(F)c(O[C@H]2CC[C@@H](C(=O)O)CC2)cc1C(=O)N[C@@H]1[C@H]2CC[C@H](C2)[C@@H]1C(=O)Nc1cccc(Cl)c1", 102],
  ["COc1cc(F)c(O[C@H]2CC[C@@H](C(=O)O)CC2)cc1C(=O)N[C@H]1[C@@H](C(=O)Nc2ccc(F)c(S(=O)(=O)C(F)(F)F)c2)[C@@H]2C=C[C@H]1C2", 115],
  ["COc1cc(F)c(O[C@H]2CC[C@@H](C(=O)O)CC2)cc1C(=O)N[C@@H]1[C@H]2CC[C@H](C2)[C@@H]1C(=O)Nc1cccc(I)c1", 108]
]}
